Test system: Echinochloa oryzicola
Assay: Herbicide activity against Echinochloa oryzicola under greenhouse condition compound treated at 2 leaf-stage measured after 14 to 20 days
Assay type: functional
measured_parameter: MED

Echinochloa oryzicola / MED / `CC1=C(c2ccc(F)cc2)C(=O)N(C(C)(C)c2nc3ccccc3s2)C1` : value?
5 g/acre

Proceed to `CC1=C(c2ccc(F)cc2F)C(=O)N(C(C)(C)c2nc3ccccc3s2)C1`
<5 g/acre

Param item: `CC1=C(c2ccccc2)C(=O)N(C(C)(C)c2ccsc2)C1`
<10 g/acre

Subsequent entry: `COc1ccc(C2=C(C)CN(C(C)(C)c3nc4ccccc4s3)C2=O)cc1`
<5 g/acre

Thanks! And `CC1=C(c2ccccc2)C(=O)N(C(C)(C)c2ncc(C(F)(F)F)cc2Cl)C1` ?
<5 g/acre

Then what about the compound `CC1=C(c2ccccc2C(=O)O)C(=O)N(C(C)(C)c2nc3ccccc3s2)C1` ?
<5 g/acre

Queued: `CC1=C(c2ccccc2)C(=O)N(C(C)(C)c2cccs2)C1`
<10 g/acre

How about `CC1=C(c2ccccc2)C(=O)N(C(C)(C)c2nc3ccccc3s2)C1` ?
1.25 g/acre

And the next one, `CC1=C(c2ccccc2)C(=O)N(C(C)(C)c2sc3ccccc3[n+]2[O-])C1` ?
<5 g/acre

Now try `COc1ccccc1C1=C(C)CN(C(C)(C)c2nc3ccccc3s2)C1=O` .
<5 g/acre

Repeat for the following compound: `CC1=C(c2ccccc2)C(=O)N(C(C)(C)c2nc3ccccc3o2)C1`
5 g/acre
